Recorded values, source ChEMBL document CHEMBL4033643.

- System: Jurkat
- ASSAY_NOTES: Cytotoxicity against human Jurkat cells assessed as reduction in cell viability after 72 hrs by MTT assay
- Type: functional, cell-based
MEASURE_NAME: pIC50
Just so you know, pIC50 here is -log10 of the concentration in molar units; reply with that number alone.

The recorded pIC50 for entry `O=C1C=C[C@]2(C[C@H](OC(=O)/C=C/c3ccc([N+](=O)[O-])cc3)[C@@H](c3ccccc3)O2)O1` equals 4.51

The recorded pIC50 for entry `O=C1C=C[C@@]2(C[C@H](OC(=O)/C=C/c3ccccc3)[C@@H](c3ccccc3)O2)O1` equals 4.06

The recorded pIC50 for entry `O=C1C=C[C@@]2(C[C@H](OC(=O)/C=C/c3ccc(F)cc3)[C@@H](c3ccccc3)O2)O1` equals 4.65

The recorded pIC50 for entry `O=C1C=C[C@]2(C[C@H](OC(=O)/C=C/c3ccccc3)[C@@H](c3ccccc3)O2)O1` equals 6.68

* * *

- Tested on: K562
- ASSAY_NOTES: Cell cycle arrest in human K562 cells assessed as accumulation at sub G1 phase at IC50 after 72 hrs by propidium iodide staining based flow cytometry (reference value: 1.48%)
- Format: functional
Consider the following molecules; for each one, report its Activity.
Please respond with the number in % and leave the unit unwritten.

The recorded Activity for entry `COc1ccc(/C=C/C(=O)O[C@H]2C[C@@]3(C=CC(=O)O3)O[C@@H]2c2ccccc2)cc1` equals 1.57

The recorded Activity for entry `O=C1C=C[C@@]2(C[C@H](OC(=O)/C=C/c3ccc([N+](=O)[O-])cc3)[C@@H](c3ccccc3)O2)O1` equals 2.93

The recorded Activity for entry `O=C1C=C[C@@]2(C[C@H](OC(=O)/C=C/c3ccc([N+](=O)[O-])cc3)[C@H](c3ccccc3)O2)O1` equals 40.08

The recorded Activity for entry `O=C1C=C[C@@]2(C[C@H](O)[C@H](c3ccccc3)O2)O1` equals 1.1

The recorded Activity for entry `COc1ccc(/C=C/C(=O)O[C@H]2C[C@]3(C=CC(=O)O3)O[C@H]2c2ccccc2)cc1` equals 3.41

The recorded Activity for entry `O=C1C=C[C@]2(C[C@H](O)[C@H](c3ccccc3)O2)O1` equals 1.09

The recorded Activity for entry `O=C1C=C[C@]2(C[C@H](OC(=O)/C=C/c3ccc(F)cc3)[C@@H](c3ccccc3)O2)O1` equals 2.02

The recorded Activity for entry `O=C1C=C[C@@]2(C[C@H](OC(=O)/C=C/c3ccc(F)cc3)[C@@H](c3ccccc3)O2)O1` equals 2.61

The recorded Activity for entry `O=C1C=C[C@]2(C[C@H](OC(=O)/C=C/c3ccccc3)[C@H](c3ccccc3)O2)O1` equals 5.69

The recorded Activity for entry `O=C1C=C[C@]2(C[C@H](OC(=O)/C=C/c3ccc([N+](=O)[O-])cc3)[C@H](c3ccccc3)O2)O1` equals 20.43

The recorded Activity for entry `O=C1C=C[C@]2(C[C@H](O)[C@@H](c3ccccc3)O2)O1` equals 1.6

* * *

- Test system: K562
- ASSAY_NOTES: Induction of apoptosis in human K562 cells assessed as increase in cleaved PARP expression level by Western blot analysis
- Format: functional, cell-based
Calls of active or inactive are those of the source. No cut-off for these calls is given here.
API: response.call in 1 for active, 0 for inactive

(Q) Fill in: this test's call for `O=C1C=C[C@]2(C[C@H](OC(=O)/C=C/c3ccccc3)[C@H](c3ccccc3)O2)O1` is ___
(A) 0

(Q) Fill in: this test's call for `O=C1C=C[C@]2(C[C@H](OC(=O)/C=C/c3ccc([N+](=O)[O-])cc3)[C@@H](c3ccccc3)O2)O1` is ___
(A) 0

(Q) Fill in: this test's call for `COc1ccc(/C=C/C(=O)O[C@H]2C[C@@]3(C=CC(=O)O3)O[C@H]2c2ccccc2)cc1` is ___
(A) 1

(Q) Fill in: this test's call for `O=C1C=C[C@@]2(C[C@H](OC(=O)/C=C/c3ccccc3)[C@H](c3ccccc3)O2)O1` is ___
(A) 1

(Q) Fill in: this test's call for `O=C1C=C[C@]2(C[C@H](O)[C@@H](c3ccccc3)O2)O1` is ___
(A) 1

(Q) Fill in: this test's call for `O=C1C=C[C@@]2(C[C@H](OC(=O)/C=C/c3ccc(F)cc3)[C@H](c3ccccc3)O2)O1` is ___
(A) 1

(Q) Fill in: this test's call for `O=C1C=C[C@@]2(C[C@H](OC(=O)/C=C/c3ccc([N+](=O)[O-])cc3)[C@H](c3ccccc3)O2)O1` is ___
(A) 1

* * *

- Tested on: K562
- ASSAY_NOTES: Cytotoxicity against human K562 cells assessed as reduction in cell viability after 72 hrs by MTT assay
- Format: functional, cell-based
- MEASUREMENT_CONTEXT: K562, 72 h
Categories are assigned from the measured IC50 using these intervals: bottom end (below 1000 nM), midrange (1000 nM to below 6000 nM), top end (6000 nM or more)

(Q) State the band of `O=C1C=C[C@@]2(C[C@H](O)[C@@H](c3ccccc3)O2)O1`
(A) bottom end

(Q) State the band of `O=C1C=C[C@]2(C[C@H](OC(=O)/C=C/c3ccc([N+](=O)[O-])cc3)[C@@H](c3ccccc3)O2)O1`
(A) midrange

(Q) State the band of `O=C1C=C[C@]2(C[C@H](OC(=O)/C=C/c3ccccc3)[C@H](c3ccccc3)O2)O1`
(A) midrange

(Q) State the band of `O=C1C=C[C@@]2(C[C@H](OC(=O)/C=C/c3ccccc3)[C@H](c3ccccc3)O2)O1`
(A) midrange

(Q) State the band of `O=C1C=C[C@]2(C[C@H](OC(=O)/C=C/c3ccc(F)cc3)[C@@H](c3ccccc3)O2)O1`
(A) top end

(Q) State the band of `O=C1C=C[C@]2(C[C@H](O)[C@@H](c3ccccc3)O2)O1`
(A) bottom end

(Q) State the band of `O=C1C=C[C@@]2(C[C@H](OC(=O)/C=C/c3ccc(F)cc3)[C@@H](c3ccccc3)O2)O1`
(A) midrange

(Q) State the band of `O=C1C=C[C@]2(C[C@H](OC(=O)/C=C/c3ccc(F)cc3)[C@H](c3ccccc3)O2)O1`
(A) top end

(Q) State the band of `O=C1C=C[C@@]2(C[C@H](OC(=O)/C=C/c3ccccc3)[C@@H](c3ccccc3)O2)O1`
(A) top end

(Q) State the band of `O=C1C=C[C@@]2(C[C@H](O)[C@H](c3ccccc3)O2)O1`
(A) bottom end

(Q) State the band of `COc1ccc(/C=C/C(=O)O[C@H]2C[C@@]3(C=CC(=O)O3)O[C@@H]2c2ccccc2)cc1`
(A) midrange

* * *

- System: K562
- ASSAY_NOTES: Cell cycle arrest in human K562 cells assessed as accumulation at sub G1 phase at IC50 after 72 hrs by propidium iodide staining based flow cytometry (reference value: 1.48%)
- Format: functional
Consider the following molecules; for each one, report its Activity.
Please respond with the number in % and leave the unit unwritten.

Value sought: Activity, system K562, item `O=C1C=C[C@]2(C[C@H](OC(=O)/C=C/c3ccc(F)cc3)[C@H](c3ccccc3)O2)O1` . Result: 14.87

Value sought: Activity, system K562, item `O=C1C=C[C@@]2(C[C@H](OC(=O)/C=C/c3ccccc3)[C@@H](c3ccccc3)O2)O1` . Result: 56.93

Value sought: Activity, system K562, item `O=C1C=C[C@@]2(C[C@H](OC(=O)/C=C/c3ccccc3)[C@H](c3ccccc3)O2)O1` . Result: 12.49

Value sought: Activity, system K562, item `COc1ccc(/C=C/C(=O)O[C@H]2C[C@@]3(C=CC(=O)O3)O[C@H]2c2ccccc2)cc1` . Result: 3.23

Value sought: Activity, system K562, item `O=C1C=C[C@@]2(C[C@H](OC(=O)/C=C/c3ccc(F)cc3)[C@H](c3ccccc3)O2)O1` . Result: 3.99

Value sought: Activity, system K562, item `O=C1C=C[C@]2(C[C@H](OC(=O)/C=C/c3ccccc3)[C@@H](c3ccccc3)O2)O1` . Result: 28.63

Value sought: Activity, system K562, item `O=C1C=C[C@@]2(C[C@H](O)[C@@H](c3ccccc3)O2)O1` . Result: 1.26

Value sought: Activity, system K562, item `O=C1C=C[C@]2(C[C@H](OC(=O)/C=C/c3ccc([N+](=O)[O-])cc3)[C@@H](c3ccccc3)O2)O1` . Result: 2.13

Value sought: Activity, system K562, item `COc1ccc(/C=C/C(=O)O[C@H]2C[C@]3(C=CC(=O)O3)O[C@@H]2c2ccccc2)cc1` . Result: 3.39

* * *

- Tested on: Jurkat
- ASSAY_NOTES: Cytotoxicity against human Jurkat cells assessed as reduction in cell viability after 72 hrs by MTT assay
- Type: functional, cell-based
In plain terms, low IC50, meaning strictly below 10 µM, gives fulfilled, and everything else gives not fulfilled.

(Q) Dear reviewer, please state whether `COc1ccc(/C=C/C(=O)O[C@H]2C[C@@]3(C=CC(=O)O3)O[C@H]2c2ccccc2)cc1` has IC50 strictly beneath 10 µM.
(A) fulfilled

(Q) Dear reviewer, please state whether `O=C1C=C[C@@]2(C[C@H](OC(=O)/C=C/c3ccc([N+](=O)[O-])cc3)[C@@H](c3ccccc3)O2)O1` has IC50 strictly beneath 10 µM.
(A) not fulfilled

(Q) Dear reviewer, please state whether `COc1ccc(/C=C/C(=O)O[C@H]2C[C@]3(C=CC(=O)O3)O[C@H]2c2ccccc2)cc1` has IC50 strictly beneath 10 µM.
(A) not fulfilled

(Q) Dear reviewer, please state whether `O=C1C=C[C@]2(C[C@H](OC(=O)/C=C/c3ccccc3)[C@H](c3ccccc3)O2)O1` has IC50 strictly beneath 10 µM.
(A) fulfilled

(Q) Dear reviewer, please state whether `O=C1C=C[C@]2(C[C@H](O)[C@@H](c3ccccc3)O2)O1` has IC50 strictly beneath 10 µM.
(A) fulfilled

(Q) Dear reviewer, please state whether `COc1ccc(/C=C/C(=O)O[C@H]2C[C@]3(C=CC(=O)O3)O[C@@H]2c2ccccc2)cc1` has IC50 strictly beneath 10 µM.
(A) not fulfilled
